tested on: MDA-MB-435; assay: NCI tumour cell line growth inhibition, 48 h
Form field: TGI (one value per entry).
All answers are understood in µM, so give the number only.

Worked set:
INSERT INTO assay_data (compound, quantitative_result) VALUES
  ('Cc1c2cccnc2c(C)c2c1c1cc(CO)ccc1n2C', 13.7),
  ('COc1ccc(CC2c3cc(Oc4cc(CC5c6cc(OC)c(OC)cc6CCN5C)ccc4O)c(OC)cc3CCN2C)cc1 (stereo unspecified)', 9.88),
  ('COc1ncnc(C2CC2)c1-c1ncc2cnn(Cc3ccc(-c4nc(C(F)(F)F)cn4C(C)C)cc3)c2n1', 51.6);

Below: the item to evaluate.
Fill blank: measured TGI of the compound CCN(CC)c1c(N(CC)CC)c(=O)c1=O is ____.
60.9

----------
Form field: TGI (one value per entry).
tested on: SK-MEL-28 melanoma; assay: NCI tumour cell line growth inhibition, 48 h

Worked set:
INSERT INTO assay_data (molecule, result) VALUES
  ('O=C(OC(=O)n1ccc2ccccc21)n1ccc2ccccc21', '> 100 µM'),
  ('O=C1c2ccccc2C2(Br)C(=O)c3ccccc3C12 (stereo not given)', '> 100 µM'),
  ('C[C@]12C=CC(=O)C=C1CC[C@H]1[C@@H]3C[C@@H](O)[C@](O)(C(=O)CO)[C@@]3(C)C[C@H](O)[C@@]12F', '> 100 µM'),
  ('CN(c1ccc(Cl)cc1)S(=O)(=O)c1cccc([N+](=O)[O-])c1', '> 100 µM');

Given the entry COc1ncnc(C2CC2)c1-c1ncc2cnn(Cc3ccc(-c4nc(C(F)(F)F)cn4C(C)C)cc3)c2n1 , what TGI was observed with SK-MEL-28 melanoma?
71.3 µM

----------
test system: UACC-62 melanoma; test: NCI tumour cell line growth inhibition, 48 h
READOUT: TGI (µM)
All answers are understood in µM, so give the number only.

INSERT INTO assay_data (molecule, quantitative_result) VALUES
  ('CC(=O)OC1CCC2(C)C3CCC4(C)C(c5ccc(=O)oc5)CC5OC54C3CCC2(O)C1 (stereo not given)', 6.95);

Fill blank: measured TGI of the molecule COC(=O)Cc1cc(O)c(C/C=C(\C)CC/C=C(\C)C(O)C(=O)C=C(C)C)cc1O (stereo not given) is ____.
44.4

----------
test system: M14 melanoma; assay: NCI tumour cell line growth inhibition, 48 h; in the data active = GI50 below about 0.43 µM; inactive = the rest
Lab note: assign the record to one of True = active, False = inactive

What was the test verdict on Cc1c2cccnc2c(C)c2c1c1cc(CO)ccc1n2C ?
False

What was the test verdict on CCOC(=O)Oc1c(OC)cc(C(=O)NC2CCc3cc(OC)c(OC)c(OC)c3-c3ccc(SC)c(=O)cc32)cc1OC (centres undefined) ?
True

What was the test verdict on Cc1ccc(Cl)cc1Nc1nc(C(F)(F)F)ccc1C(=O)N1CCN(c2ccc(F)cc2)CC1 ?
False

What was the test verdict on CC(SC(C)C(=O)N/N=C/c1cccc(Cl)c1)C(=O)N/N=C\c1cccc(Cl)c1 (centres undefined) ?
False

What was the test verdict on COC(=O)/C=C/c1cc(O)c2oc(-c3ccc(O)c(O)c3)c(C(=O)OC)c2c1 ?
True

What was the test verdict on O=C(c1ccccc1)c1cc(Cl)ccc1OCCCCN1CCN(CCCCOc2ccc(Cl)cc2C(=O)c2ccccc2)CC1 ?
False
